# Experiment description: Pharmacokinetic evaluation of compounds in mice
# Type: in vivo
# Test context: mouse, plasma; male CD-1 mice, single dose; route not stated (IV 0.5 mg/kg, PO 2.5 mg/kg)
Where a name gives a salt, the structure may show the parent alone.
# key: entry, value: Cmax
Number only, in nM; omit the unit.

| Compound | Cmax (nM) |
| --- | --- |
| Cc1cc(-c2ncc(CNc3nccn4c(-c5cc(F)cc(F)c5)cnc34)cc2C)ccn1 [Compound 30 (hydrochloride)] | 2580 |

Ask: Item Cc1cc(-c2ncc(CNc3nccn4c(-c5cc(F)cc(F)c5)cnc34)cc2OCCN(C)C)ccn1 : provide Cmax
Reply: 107

Ask: Item Cc1cc(-c2ncc(CNc3nccn4c(-c5cccc(Cl)c5)cnc34)cc2C)ccn1 [Compound 28 (hydrochloride)] : provide Cmax
Reply: 2340

Ask: Item Cc1cc(-c2ccc(CNc3nccn4c(-c5ccccc5)cnc34)cc2C#N)ccn1 [Compound 22 (formate)] : provide Cmax
Reply: 1820

Ask: Item Cc1cc(-c2ncc(CNc3nccn4c(-c5ccccc5)cnc34)cc2C)ccn1 : provide Cmax
Reply: 3030

Ask: Item Cc1cc(-c2ncc(CNc3nccn4c(-c5cc(F)cc(F)c5)cnc34)cc2F)ccn1 [Compound 36 (formate)] : provide Cmax
Reply: 980

Ask: Item Cc1cc(-c2ncc(CNc3nccn4c(-c5cccc(F)c5)cnc34)cc2C)ccn1 [Compound 29 (hydrochloride)] : provide Cmax
Reply: 2640
